- Test system: MDA-MB-435 melanoma
- Test Summary: NCI-60 one-dose screen, 48 h (100 = growth as untreated, 0 = no growth, -100 = all killed)
- Condition Label: 10 µM unless noted
This is part of a sample that, as a whole, favours compounds with a hit. Of some 83,000 tested, about 20% had one in any assay.
Entries and their measured growth follow.
Quick reminder: number only, in %, skip the unit.

Sure, the documented growth for O=C(CSc1nc2ccccc2[nH]1)c1ccc(N2CCOCC2)cc1 is 100

###

Entries and their measured growth follow.
- Test system: HOP-62 NSCLC
- Test Summary: NCI-60 one-dose screen, 48 h (100 = growth as untreated, 0 = no growth, -100 = all killed)
- Condition Label: 10 µM unless noted
This is part of a sample that, as a whole, favours compounds with a hit. Of some 83,000 tested, about 20% had one in any assay.
Quick reminder: number only, in %, skip the unit.

Compound	growth, %
Nc1nc(-c2ccccc2)c(CCCOc2ccc(NC(=O)CBr)cc2)c(=O)[nH]1	134
COc1cc(C2CC(c3ccc4c(c3)OCO4)=NN2C=O)cc(OC)c1OC (stereo unspecified)	36.7
CCCCC(CC)OC(=O)C(Br)CC (stereo unspecified)	111
C=C1CC2(OC1=O)C(=O)N(CCCN1C(=O)C3(CC(=C)C(=O)O3)c3ccccc31)c1ccccc12 (stereo unspecified)	98.2
CCOC(=O)c1cn2c3c(cc(C)cc3c1=O)C(=O)/C(=C/c1ccccc1)C2	79.2
N=C(N)c1ccc(-c2ccc(-c3cncc4ccccc34)s2)cc1F	-83.3
CCCCCCCCCCCCCCCCCCNC(=O)[C@H]1CSC(c2ccc(OC)cc2O)N1 (stereo partly specified)	63.9
O=c1cc(Cc2ccc([N+](=O)[O-])cc2)[nH]c(=O)[nH]1	93.3

Sure, the documented growth for COc1ccc(Nc2nn3c(C)cc(C)nc3c2C(=O)Nc2ccc(C)cc2)c(OC)c1 is 85.8

Sure, the documented growth for O=[N+]([O-])c1cccc(-c2nc3sccn3c2-c2ccnc(NCCCNS(=O)(=O)c3ccc(Cl)cc3)n2)c1 is 84

Sure, the documented growth for C=C1C(=O)O[C@H]2[C@H]1CC/C(Cn1cc(CNC(=O)Cc3cn(C(=O)c4ccc(Cl)cc4)c4ccc(OC)cc34)nn1)=C\CC[C@@]1(C)O[C@@H]21 is 78.6
